biological target: CBL-B (Homo sapiens, UniProt Q13191); construct: GST; experiment: CBL-B TR-FRET IC50 screening (E1/E2 ubiquitination, Biotin-Ubiquitin, Anti GST-Tb donor / Streptavidin-d2 acceptor); format: biochemical; conditions: second part of Table 2 (head 'Patent Cmpd No / Updated Activity'); same CBL-B TR-FRET IC50 bins A-F; read-out: Updated Activity
Sequence (Q13191 whole entry): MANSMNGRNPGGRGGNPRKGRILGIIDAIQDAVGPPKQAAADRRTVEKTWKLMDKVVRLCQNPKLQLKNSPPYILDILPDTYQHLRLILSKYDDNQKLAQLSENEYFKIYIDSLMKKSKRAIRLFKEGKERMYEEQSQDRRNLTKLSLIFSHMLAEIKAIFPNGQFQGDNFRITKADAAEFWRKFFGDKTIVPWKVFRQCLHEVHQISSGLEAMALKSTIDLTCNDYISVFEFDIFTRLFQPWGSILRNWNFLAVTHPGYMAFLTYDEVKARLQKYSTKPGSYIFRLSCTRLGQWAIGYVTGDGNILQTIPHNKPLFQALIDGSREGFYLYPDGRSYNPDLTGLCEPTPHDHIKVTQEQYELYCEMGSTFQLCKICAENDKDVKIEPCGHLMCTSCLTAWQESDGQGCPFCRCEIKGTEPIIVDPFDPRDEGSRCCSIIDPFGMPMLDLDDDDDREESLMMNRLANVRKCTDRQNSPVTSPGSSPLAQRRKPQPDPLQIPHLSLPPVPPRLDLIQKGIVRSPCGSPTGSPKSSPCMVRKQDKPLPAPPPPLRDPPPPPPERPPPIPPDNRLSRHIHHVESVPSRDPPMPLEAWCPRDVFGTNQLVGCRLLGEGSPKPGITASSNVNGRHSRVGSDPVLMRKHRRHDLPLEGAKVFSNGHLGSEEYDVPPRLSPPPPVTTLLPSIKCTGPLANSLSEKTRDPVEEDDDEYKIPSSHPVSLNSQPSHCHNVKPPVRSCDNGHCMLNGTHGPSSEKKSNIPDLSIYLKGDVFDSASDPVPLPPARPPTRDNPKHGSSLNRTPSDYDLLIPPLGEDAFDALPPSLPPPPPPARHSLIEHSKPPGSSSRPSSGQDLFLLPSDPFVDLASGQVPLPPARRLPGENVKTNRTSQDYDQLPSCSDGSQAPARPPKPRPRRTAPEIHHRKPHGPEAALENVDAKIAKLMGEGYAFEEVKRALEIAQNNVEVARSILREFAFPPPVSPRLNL
pIC50: −log10 of the molar value.
Listed compounds paired with reported pIC50
QUANTITY: pIC50

1. [2H]C([2H])(c1cc(C(F)(F)F)c2cn(-c3cccc([C@H](c4nncn4C)C4CCC4)c3)c(=O)n2c1)N1CCC2(CC2)C1 [Compound 505]    > 7.00
2. Cn1cnnc1[C@H](c1cc(C#N)cc(-n2cc3c(C(F)(F)F)cccn3c2=O)c1)C1CCC1 (single isomer, unassigned) [Compound 452]    < 5.00
3. CC(=O)N1CC([C@H](c2cccc(-n3cc4c(C(F)(F)F)cc(CN5CCC[C@H](C)C5)cn4c3=O)c2)c2nncn2C)C1 [Compound 434_P2]    5.52 to 6.00
4. C[C@H]1CCCN(Cc2cc(C(F)(F)F)c3cn(-c4cccc([C@H](c5nncn5C)[C@H]5C[C@@H](O)C5)c4)c(=O)n3c2)C1 (single isomer, unassigned) [Compound 437]    > 7.00
5. C[C@H]1C[C@@H](O)CN(Cc2cc(C(F)(F)F)c3cn(-c4cccc([C@H](c5nncn5C)C5CCC5)c4)c(=O)n3c2)C1 (single isomer, unassigned) [Compound 587]    > 7.00
6. C[C@@H]1COCCN1Cc1cc(C(F)(F)F)c2cn(-c3cccc([C@H](c4nncn4C)C4CCC4)c3)c(=O)n2c1 [Compound 489]    > 7.00
7. CN1CC[C@]2(CCN(Cc3cc(C(F)(F)F)c4cn(-c5cccc([C@H](c6nncn6C)C6CCC6)c5)c(=O)n4c3)C2)C1=O (single isomer, unassigned) [Compound 621]    > 7.00
8. CNC(=O)Cc1cc([C@H](c2nncn2C)C2CCC2)cc(-n2cc3c(C(F)(F)F)cccn3c2=O)c1 (single isomer, unassigned) [Compound 538]    < 5.00
9. CO[C@H]1C[C@](c2cccc(-n3cc4c(C(F)(F)F)cc([C@@H](C)N5CC[C@@H](F)C5)cn4c3=O)c2)(c2nncn2C)C1 (single isomer, unassigned) [Compound 617]    6.52 to 7.00
10. CO[C@H]1C[C@](c2cccc(-n3cc4c(C(F)(F)F)cc([C@H](C)N5CC[C@@H](F)C5)cn4c3=O)c2)(c2nncn2C)C1 (single isomer, unassigned) [Compound 618]    6.52 to 7.00
11. C[C@@H]1CN(Cc2cc(C(F)(F)F)c3cn(-c4cccc([C@H](c5nncn5C)C5CC5)c4)c(=O)n3c2)CCO1 [Compound 612_P2]    > 7.00
